# Target system: human recombinant A1 adenosine receptors (Homo sapiens, UniProt P30542)
# Construct: expressed in transfected cells; host or cells: Chinese hamster ovary (CHO) cells, CHO:huA1, G-418 selected
# Sequence (P30542 whole entry): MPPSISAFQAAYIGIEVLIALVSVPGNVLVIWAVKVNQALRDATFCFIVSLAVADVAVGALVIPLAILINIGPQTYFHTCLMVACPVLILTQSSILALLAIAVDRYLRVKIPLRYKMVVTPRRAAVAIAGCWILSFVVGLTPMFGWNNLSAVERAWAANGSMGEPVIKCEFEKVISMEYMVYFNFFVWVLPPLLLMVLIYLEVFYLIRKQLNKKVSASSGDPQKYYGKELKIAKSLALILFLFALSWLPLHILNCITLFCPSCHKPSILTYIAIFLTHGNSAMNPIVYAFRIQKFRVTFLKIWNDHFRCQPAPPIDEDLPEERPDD
# Assay notes: Allosteric enhancement: reduction of cAMP content of CHO:huA1 cells (radioimmunoassay)
# Assay type: cell-based
# Measurement context: 0.1 h, 0.1 μM test compound, forskolin 1 μM, rolipram 20 μM, CPA 0.01 nM, adenosine deaminase, 6 min at 36° C., read-out: Change in cAMP Content from Control (mean + SEM)
Please go through the items and note down their inhibition at 0.1 µM.
Give the quantity in %, number only.

// inhibition at 0.1 µM value for Nc1sc2c(c1C(=O)c1ccc(Cl)cc1)CCS2 : -11

// inhibition at 0.1 µM value for Cc1sc(N)c(C(=O)c2ccccn2)c1C : 8

// inhibition at 0.1 µM value for Nc1sc2c(c1C(=O)c1ccc(I)c3ccccc13)CCC2 : 8

// inhibition at 0.1 µM value for Nc1sc2c(c1C(=O)c1ccccn1)CCCC2 : 8

// inhibition at 0.1 µM value for Nc1sc2c(c1C(=O)c1ccccn1)CCN(Cc1ccccc1)C2 : -7

// inhibition at 0.1 µM value for Cc1sc(N)c(C(=O)c2ccco2)c1C : -11

// inhibition at 0.1 µM value for Cc1sc(N)c(C(=O)c2ccc3ccccc3c2)c1C : 4

// inhibition at 0.1 µM value for Nc1sc2c(c1C(=O)c1cccc3ccccc13)CCC2 : 6

// inhibition at 0.1 µM value for Nc1sc2c(c1C(=O)c1ccc(Cl)cc1)CCSC2 : 10

// inhibition at 0.1 µM value for Nc1sc2c(c1C(=O)c1cc3ccccc3o1)CCCC2 : 3

// inhibition at 0.1 µM value for Nc1sc2c(c1C(=O)c1ccc3ccccc3c1)CCCC2 : 24

// inhibition at 0.1 µM value for Nc1sc2c(c1C(=O)c1cccc3ccccc13)CCCC2 : 15

// inhibition at 0.1 µM value for Nc1sc2c(c1C(=O)c1ccco1)CCC2 : 14

// inhibition at 0.1 µM value for Nc1sc2c(c1C(=O)c1ccco1)CCCC2 : -2

// inhibition at 0.1 µM value for Nc1sc2c(c1C(=O)c1ccc(I)c3ccccc13)CCCC2 : 4

// inhibition at 0.1 µM value for Nc1sc2c(c1C(=O)c1cccc3ccccc13)CCN(Cc1ccccc1)C2 : 7

// inhibition at 0.1 µM value for Nc1sc2c(c1C(=O)c1ccc(Br)c3ccccc13)CCCC2 : 10

// inhibition at 0.1 µM value for Nc1sc2c(c1C(=O)c1ccc3ccccc3c1)CCN(Cc1ccccc1)C2 : 12

// inhibition at 0.1 µM value for CC(=O)Nc1sc2c(c1C(=O)c1ccco1)CCCC2 : 14

// inhibition at 0.1 µM value for Nc1sc2c(c1C(=O)c1ccccc1)CCSC2 : 6

// inhibition at 0.1 µM value for Cc1sc(N)c(C(=O)c2cc3ccccc3o2)c1C : 7

// inhibition at 0.1 µM value for Nc1sc2c(c1C(=O)c1ccc3ccccc3c1)CCC2 : 14

// inhibition at 0.1 µM value for Cc1sc(N)c(C(=O)c2cccc3ccccc23)c1C : 3

// inhibition at 0.1 µM value for Nc1sc2c(c1C(=O)c1ccc(Cl)c3ccccc13)CCCC2 : -3

// inhibition at 0.1 µM value for Nc1sc2c(c1C(=O)c1cc3ccccc3o1)CCN(Cc1ccccc1)C2 : -14

// inhibition at 0.1 µM value for Nc1sc2c(c1C(=O)c1cc3ccccc3o1)CCC2 : 13

// inhibition at 0.1 µM value for Nc1sc2c(c1C(=O)c1ccco1)CCN(Cc1ccccc1)C2 : 0.6

// inhibition at 0.1 µM value for Nc1sc2c(c1C(=O)c1ccc(Br)c3ccccc13)CCC2 : -19
